Origin of the recorded values: patent US20230097090A1

Experiment: pKa of representative cationic lipids
Format: physicochemical
Settings: first Table 12, representative lipid compounds XIII
measurement_name: pKa

{"columns": ["compound", "pKa"],
 "data": [
  ["CCCCCCCCCCN(C(=O)CCCCN(C)C)C(CCCCCCCCC(=O)OCC(CCCC)CCCCCC)CCCCCCCCC(=O)OCC(CCCC)CCCCCC (centres unmarked)", 6.74],
  ["CCCCCCCCCCN(C(=O)CCCN(C)C)C(CCCCCC(=O)OCC(CCCCCC)CCCCCCCC)CCCCCC(=O)OCC(CCCCCC)CCCCCCCC (centres unmarked)", 6.77],
  ["CCCCCCCCCCN(C(=O)CCCCN(CCCC)CCCC)C(CCCCCCCCC(=O)OCC(CCCC)CCCCCC)CCCCCCCCC(=O)OCC(CCCC)CCCCCC (centres unmarked)", 5.05],
  ["CCCCCCC(CCCC)COC(=O)CCCCCCCCC(CCCCCCCCC(=O)OCC(CCCC)CCCCCC)N(CC(CC)CCCC)C(=O)CCCN(C)C (centres unmarked)", 6.84],
  ["CCCCCCCCCN(C(=O)CCCN(C)C)C(CCCCCCCCCOC(=O)C(CCCC)CCCCCC)CCCCCCCCCOC(=O)C(CCCC)CCCCCC (centres unmarked)", 6.41]
]}

====

Assay: pKa of representative cationic lipids
Type: physicochemical
Conditions: first Table 12, representative lipid compounds XIII
measurement_name: pKa

{"columns": ["molecule", "measurement_name", "recorded_measurement"],
 "data": [
  ["CCCCCCCCCCN(C(=O)CCN1CCCC1)C(CCCCCCCCC(=O)OCC(CCCC)CCCCCC)CCCCCCCCC(=O)OCC(CCCC)CCCCCC (stereo not drawn)", "pKa", 6.19],
  ["CCCCCCCCCN(C(=O)CCN(C)C)C(CCCCCCCCC(=O)OCC(CCCC)CCCCCC)CCCCCCCCC(=O)OCC(CCCC)CCCCCC (stereo not drawn)", "pKa", 6.2],
  ["CCCCCCCCCCN(C(=O)CCCN(C)C)C(CCCCCCCCC(=O)OCC(CCCC)CCCCCC)CCCCCCCCC(=O)OCC(CCCC)CCCCCC (stereo not drawn)", "pKa", 6.47],
  ["CCCCCCCCCCN(C(=O)CCCN1CCCC1)C(CCCCCC(=O)OCC(CCCCCC)CCCCCCCC)CCCCCC(=O)OCC(CCCCCC)CCCCCCCC (stereo not drawn)", "pKa", 6.81],
  ["CCCCCCCCCCN(C(=O)CCCCN(CC)CC)C(CCCCCCCCC(=O)OCC(CCCC)CCCCCC)CCCCCCCCC(=O)OCC(CCCC)CCCCCC (stereo not drawn)", "pKa", 6.68],
  ["CCCCCCCCCCN(C(=O)CCCCN1CCCC1)C(CCCCCCCCC(=O)OCC(CCCC)CCCCCC)CCCCCCCCC(=O)OCC(CCCC)CCCCCC (stereo not drawn)", "pKa", 6.83]
]}

====

Assay: pKa of representative cationic lipids
Assay type: physicochemical
Settings: Table 2, lipids of Formula (II)
measurement_name: pKa

{"columns": ["compound", "measurement_name", "recorded_measurement"],
 "data": [
  ["CCCCC(CCCC)OC(=O)CCCCCCCCC(CCCCCCCCC(=O)OC(CCCC)CCCC)N(CCCN(C)C)C(=O)CCCCCCCC(=O)OC(CCCC)CCCC", "pKa", 6.14],
  ["CCCCCCCCC(=O)N(CCCN(C)C)C(CCCCCCCCCOC(=O)C(CCCC)CCCCCC)CCCCCCCCCOC(=O)C(CCCC)CCCCCC (centres unmarked)", "pKa", 6.27]
]}
